B1: SAT2 (parent)
chain: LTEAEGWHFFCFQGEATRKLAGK

Variants of: B1
Test: protein stability index of a GFP-peptide fusion (GPS, HEK-293T) (PSI 1-6); higher = more stable;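 note: lentivirally expressed fusions sorted by FACS into six bins by GFP to DsRed ratio, PSI derived from sequencing read proportions per bin multiplied by bin number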
Conditions: c terminus: native
Consider the following variants and their measured protein stability index readings.
PARAMETER_MEASURED: protein stability index

1. A16V : 2.3
2. E5H : 1.85
3. F9L : 1.85
4. G14V : 2.33
5. A4N : 2.87
6. C11Q : 3.46
7. C11N : 3.04
8. C11Y : 2.12
9. A16T : 1.68
10. E3F : 1.64
11. F12A : 3.56
12. A4R : 2.17
13. G6K : 2.15
14. F9D : 4.19
15. G6Y : 1.61
16. C11A : 2.09
17. T17D : 2.79
18. E5S : 2.17
19. T17G : 2.15
20. F12W : 2.35
21. L1E : 3.73
22. L1D : 3.43

Origin of the recorded values: the supplement of paper PMC10567573
